All values here come from PubChem BioAssay (NCI).

# Test system: MOLT-4 leukemia
# EXPERIMENT: NCI-60 one-dose screen, 48 h
# COND: 10 µM unless noted
The panel holds about 83,000 compounds, 20% with a hit somewhere; the sample as a whole holds those more often. Calls of active or inactive are those of the source. Rule for the calls: active = growth percent below 10; inactive = the rest.
Bench note: report the call from Y for active, N for inactive

COc1cc(Cn2c(-c3ccccc3)cc3c2-c2oncc2CC3)cc(OC)c1OC
N
COc1ccc(CCN2COc3c([C@@H](C)CCC=C(C)C)ccc(C)c3C2)cc1OC
N
COc1cc(C2CC(c3ccc(Nc4ccnc5cc(Cl)ccc45)cc3)=NN2c2ccccc2)cc(OC)c1OC (stereo not given)
N

// param item: CC(C)(C)NC(=O)C(OC(=O)C1CCc2cc(F)ccc2O1)c1ccccc1Cl (stereo not given) ; yields the recorded call N

Follow-up item: "CCN(CC)CCCNc1cccc2c(C)cc(OC)nc12" N

Follow-up item: "CCCc1n(Cc2ccc3ccccc3n2)cc[n+]1Cc1ccc2ccccc2n1" N

Follow-up item: "Cc1ccc(CSCc2ccc(C(=O)NC3CC3)o2)cc1" N

Follow-up item: CCc1ccc2c(c1)N(CCO)C1=C(C(=O)OC1)C2c1cccc(Br)c1 (stereo not given) N

Follow-up item: "CCOC(=O)c1c(NC(=O)c2ccccc2)sc2c(O)c(CN(CC)CC)ccc12" N

Follow-up item: "Nc1ccc(C(OC(=O)c2cc3ccccc3c(Cc3c(O)c(C(=O)OC(c4ccc(N)cc4)(c4ccc(N)cc4)c4ccc(N)cc4)cc4ccccc34)c2O)(c2ccc(N)cc2)c2ccc(N)cc2)cc1" N

Follow-up item: Fc1[nH]nc2ccc([C@@H]3Nc4ccc5[nH]ncc5c4[C@H]4C5CCC(C5)[C@@H]34)cc12 (stereo not given in full) N

Follow-up item: "Cn1c(=O)c2c3c(oc2c2ccccc21)C(=O)c1ccccc1C3=O" Y

Follow-up item: COc1ccc2c(c1)CCCC21C(=O)Nc2ccccc21 (stereo not given) N

Follow-up item: "CCCCCCCCCCCCCCCc1cc(O)ccc1[N+](=O)[O-]" N

Follow-up item: CCc1ccc2c(c1)N(CCO)C1=C(C(=O)OC1)C2c1cccc(Cl)c1 (stereo not given) N

Follow-up item: "CCOc1ccc([C@@H]2[C@@H](Oc3ccccc3)C(=O)N2c2cc(OC)c(OC)c(OC)c2)cc1" Y

Follow-up item: CCOC(=O)C1=C(C)NC(SCc2nnc(-c3ccc(Cl)cc3)o2)=NC1c1ccc(Cl)cc1 (stereo not given) Y

Follow-up item: "O=C(Nc1ccc(Br)cc1)Nc1ccccc1Cl" N

Follow-up item: "CNC(=O)c1cc(Oc2ccc(NC(=O)c3nc(S(C)(=O)=O)n(C)c3-c3ccc(F)cc3)cc2)ccn1" N

Follow-up item: "O=NN(CC(=O)NNc1ccccc1)CC(=O)NNc1ccccc1" N

* * *

# Tested on: HCC-2998 colon
# EXPERIMENT: NCI-60 one-dose screen, 48 h
# COND: 10 µM unless noted
The panel holds about 83,000 compounds, 20% with a hit somewhere; the sample as a whole holds those more often. Calls of active or inactive are those of the source. The calls were made as follows: active = growth percent below 10; inactive = the rest.
Bench note: report the call from 1 for active, -1 for inactive

// param item: "COc1cccc(NC(=O)c2c(-c3ccccc3)c(-c3ccccc3)n[nH]c2=O)c1" ; yields the recorded call -1

* * *

# System: NCI-H226 lung
# EXPERIMENT: NCI-60 one-dose screen, 48 h (100 = growth as untreated, 0 = no growth, -100 = all killed)
# COND: 10 µM unless noted
Compounds without any hit were thinned out: in the full panel of roughly 83,000, 20% have a hit.
Give growth for every item shown.
One number for each entry, in %.

Return reported growth values for all items listed beneath this line.
1. CN(C)c1ccc(C(c2ccccc2)c2ccc(N(C)C)cc2)cc1
2. N[C@@H](CO)C(=O)O
3. O=[N+]([O-])c1ccccc1CN1CCCCC1
4. O=C1OCC2=C1C(c1cccc(Br)c1)c1cc3c(cc1N2CCO)OCCO3 (stereo unspecified)
5. O=C(Nc1ccc(Cl)c(C(F)(F)F)c1)c1ccc(Nc2ccc(Cl)nn2)cc1

[95.2, 97.7, 112, -4.52, 84.2]

Need growth, item "CSC(=S)N/N=C(\C)c1ccccn1" 5.78

* * *

# Test system: IGROV1 ovarian
# EXPERIMENT: NCI-60 one-dose screen, 48 h (100 = growth as untreated, 0 = no growth, -100 = all killed)
# COND: 10 µM unless noted
About 83,000 compounds went through this panel and 20% of them were active in at least one assay; those are over-represented in the sample as a whole.
Give growth for every item shown.
One number for each entry, in %.

Nc1nc2ccc([C@@H]3Nc4ccc5[nH]ncc5c4[C@H]4[C@H]5CCC(C5)[C@H]43)cc2s1
33.3
CN1CCN(Cc2ccc(NC(=O)c3cncc(C#Cc4cnc5cccnn45)c3)cc2C(F)(F)F)CC1
5.12
Cc1ccc(NC(=O)c2nc(S(C)=O)oc2-c2ccc(F)cc2)cc1Nc1nccc(-c2cccnc2)n1 (stereo not given)
33.1
O=C(CS)OCC(COC(=O)CS)(COC(=O)CS)COC(=O)CS
94.4

// switching to the query molecule
Need growth, item O=C(C(Br)C(Br)c1ccccc1)C(Br)C(Br)c1ccccc1 (stereo not given) -49.5

* * *

# Tested on: HOP-62 NSCLC
# EXPERIMENT: NCI-60 one-dose screen, 48 h (100 = growth as untreated, 0 = no growth, -100 = all killed)
# COND: 10 µM unless noted
This is part of a sample that, as a whole, favours compounds with a hit. Of some 83,000 tested, about 20% had one in any assay.
Hi! Just check whether growth is below 70%. Below gives True, equal or above gives False.

CCN(CC)c1ccc2nc3c4ccccc4c(=O)cc-3n(-c3ccccc3)c2c1
True
O=C1c2ccccc2C2N1CCC1CCc3ccccc3N12 (configuration not stated)
False
CC(=O)c1c(C)nc(-c2cc(C)cc(Cl)c2)nc1-c1cccc(Oc2ccccc2)c1
False
CCCCn1c(-c2ccc(F)cc2)nc2cc(OC)c(OC)cc2c1=O
True
NC(N)=N/N=C\c1cccc(OCc2ccccc2)c1
False
NC(=O)c1noc(C(=O)c2ccccc2)c1N
False

Next:
Does this compound meet the criterion growth < 70%? "Cc1c(-c2ccc(-c3ccccc3F)cc2)nc2ccc(F)cc2c1C(=O)O" True

* * *

# Test system: OVCAR-4 ovarian
# EXPERIMENT: NCI-60 one-dose screen, 48 h (100 = growth as untreated, 0 = no growth, -100 = all killed)
# COND: 10 µM unless noted
The panel holds about 83,000 compounds, 20% with a hit somewhere; the sample as a whole holds those more often. Calls of active or inactive are those of the source. Rule for the calls: active = growth percent below 10; inactive = the rest.
QUANTITY: growth

Check out these entries, answers already filled in.
NC(N)=N/N=C/c1ccccc1
101% (inactive)
CNCc1cccc2c1OCCOCCOCCC(C)S(=O)(=O)c1ccc(cc1)-c1cnc(N)c(n1)C(=O)N2 (stereo unspecified)
75.5% (inactive)
N[C@@H](CO)C(=O)O
109% (inactive)
COc1ccccc1NC(=O)OCC12COCN1COC2
105% (inactive)
N#Cc1nc(-c2ccc(Cl)cc2)cc(-c2ccc(Nc3nc(N4CCCCC4)nc(N4CCCCC4)n3)cc2)c1N
110% (inactive)
COc1ccc(C2CC(c3ccc(Nc4ccnc5cc(Cl)ccc45)cc3)=NN2c2ccccc2)cc1 (stereo unspecified)
163% (inactive)
COc1ccc(/C=C2\Cc3c(Br)cccc3C2=O)c(OC)c1
72.1% (inactive)
Cc1n(Cc2ccc3ccccc3n2)cc[n+]1Cc1ccc2ccccc2n1
24.1% (inactive)
CCCN(CCC)CC(O)COc1ccccc1C(=O)Nc1ccccc1 (stereo unspecified)
85% (inactive)
O=c1[nH]cnc2nc[nH]c12
94.5% (inactive)

// switching to the query compound
Request: growth, test system OVCAR-4 ovarian, entry Fc1[nH]nc2ccc([C@@H]3Nc4ccc5[nH]ncc5c4[C@H]4C5CCC(C5)[C@@H]34)cc12 (stereo partly specified) 54.6% (inactive)

* * *

# System: MDA-MB-435 melanoma
# EXPERIMENT: NCI-60 one-dose screen, 48 h (100 = growth as untreated, 0 = no growth, -100 = all killed)
# COND: 10 µM unless noted
About 83,000 compounds went through this panel and 20% of them were active in at least one assay; those are over-represented in the sample as a whole. Activity calls are given as the source filed them. The calls were made as follows: active = growth percent below 10; inactive = the rest.
QUANTITY: growth

Check out these entries, answers already filled in.
COc1c(B(O)O)cccc1-c1nc2ccc3[nH]ncc3c2c2c1CCCC2
38.4% (inactive)
NC(=O)c1noc(C(=O)c2ccccc2)c1N
95.6% (inactive)
C#CC[C@@H]1C[C@]2(C)[C@H]3CC=C4[C@H]5CC(C)(C)CC[C@]5(C(=O)NCCCCN)CC[C@@]4(C)[C@]3(C)CC[C@H]2C(C)(C)[C@H]1OC(C)=O
-34.2% (active)
COc1cccc2nc(Nc3cccc(NC(=O)c4ccc(N5CCN(C)CC5)c(C(F)(F)F)c4)c3)ccc12
19.9% (inactive)
COc1ccc(-c2nsc3c2NC(=O)CC3c2cccc(F)c2)cc1 (stereo not given)
-34.1% (active)
COc1ccc(-c2nn(-c3cccc(Cl)c3)cc2/C=C2\C(=N)N(c3ccccc3)N=C2N)cc1
31.3% (inactive)
Cc1ccc2oc(=O)cc(-c3nc4ccc([N+](=O)[O-])cc4[nH]3)c2c1
64.6% (inactive)
COc1cc(C2C=C(C)N=C3SC=NN32)cc(OC)c1OC (stereo not given)
104% (inactive)
CCOC(=O)c1ccc(NCCC(=O)O)cc1
116% (inactive)
COc1cc(C(=O)/C=C/c2cn(-c3ccccc3)nc2-c2cccc(Nc3ccnc4cc(Cl)ccc34)c2)cc(OC)c1OC
66.9% (inactive)

Return reported growth values for all items listed beneath this line.
1. CCCCCCCCNC(C)C(O)c1ccc(SC(C)C)cc1 (stereo not given)
2. C#CC[C@@H]1C[C@]2(C)[C@H]3CC[C@@H]4[C@H]5C(C(=C)C)CC[C@]5(C(=O)NCCCN5CCN(CCCN)CC5)CC[C@@]4(C)[C@]3(C)CC[C@H]2C(C)(C)[C@H]1OC(C)=O (stereo not given in full)
3. CCCN(CCC)CC(O)COc1ccccc1C(=O)Nc1ccccc1 (stereo not given)
4. Cc1cc(C)cc(Nc2cc(C)nc3nc(C(F)(F)F)nn23)c1
5. Nc1ncnc2c1N=C(c1ccc(F)cc1)CC(c1sc(Cl)nc1Cl)N2 (stereo not given)

1. -40.8% (active)
2. -73.3% (active)
3. -21.1% (active)
4. 36.9% (inactive)
5. 102% (inactive)
